molecular target: Anti-hC5 Antibody; experiment: SPR (Biacore T200), 25 C, pH 7.4; SKA antibody captured by anti-rabbit IgG, Anti-hC5 Antibody injected 0-800 nM
Sequence (constant, as listed by the source limits assumed): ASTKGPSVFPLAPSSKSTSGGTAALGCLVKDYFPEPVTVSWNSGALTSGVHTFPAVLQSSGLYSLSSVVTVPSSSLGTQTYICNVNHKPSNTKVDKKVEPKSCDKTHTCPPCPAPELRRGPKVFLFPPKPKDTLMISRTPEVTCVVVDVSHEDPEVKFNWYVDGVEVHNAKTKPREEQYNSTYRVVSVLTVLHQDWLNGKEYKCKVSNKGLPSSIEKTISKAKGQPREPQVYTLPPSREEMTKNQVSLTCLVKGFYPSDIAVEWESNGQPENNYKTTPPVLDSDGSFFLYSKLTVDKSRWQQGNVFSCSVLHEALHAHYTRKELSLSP
Readout type: kon
Please give the number followed by its unit.

Binder | kon
SKA0046 (antibody, V domains shown) VH: QEQLVESGGGLVQPEGSLTLTCTASGFSLSSSNYMWWVRQAPGKGLEWIACIHASSSGDTYYANWAKGRFTISKTSSTTVTLQMTSLTAADTATYFCARGGYIYGDGGYNGVAGFSLWGPGTLVTVSS VL: DVVMTQTPASVSEPVGGTVTIKCQASETIGNALAWYQQKPGQRPKLLIYGASNLESGVPSRFKGSGSGTEFTLTISDVQCDDAATYYCQSIYYSSSADTFFFPFGGGTEVVVKG | 88500 M⁻¹ s⁻¹

Now consider a different binder.
## Input State, in one line, measured kon of SKA0016 (antibody, V domains shown) VH: QEQLVESGGGLVQPEGSLTLTCTASGFSFSSSDYMCWVRQAPGKGLEWIACIYIGSNGDTFYASWAKGRFTISKTSSTTVTLQMTSLTAADTATYFCARDSRRADDYGTRLDLWGQGTLVTVSS VL: DIVMTQTPSSVSAAVGGTVTIKCQASQNIYRNLAWYQQKPGQPPKLLIYQASKLESGVPSRFKGSGSGTEFTLTISDLDCDDAASYYCQSISYISSGDTFFWAFGGGTEVVVKG
## Output 30900 M⁻¹ s⁻¹
